Target: T1, HSV UL42 (processivity factor of HSV DNA polymerase) (herpes simplex virus (HSV), UniProt P10226 1-488)
T1 sequence: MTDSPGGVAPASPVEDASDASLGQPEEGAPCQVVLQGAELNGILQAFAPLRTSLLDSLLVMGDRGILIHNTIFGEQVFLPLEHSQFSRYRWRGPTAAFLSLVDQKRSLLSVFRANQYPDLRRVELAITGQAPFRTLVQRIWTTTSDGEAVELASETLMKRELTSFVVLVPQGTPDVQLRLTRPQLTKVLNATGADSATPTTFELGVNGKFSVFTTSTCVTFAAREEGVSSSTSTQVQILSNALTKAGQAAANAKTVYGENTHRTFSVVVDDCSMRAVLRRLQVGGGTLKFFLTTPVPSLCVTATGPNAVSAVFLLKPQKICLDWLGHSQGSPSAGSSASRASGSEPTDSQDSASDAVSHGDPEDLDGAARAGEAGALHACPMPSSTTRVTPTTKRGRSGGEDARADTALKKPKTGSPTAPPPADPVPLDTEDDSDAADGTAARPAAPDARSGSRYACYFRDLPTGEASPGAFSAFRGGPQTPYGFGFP
Test: cell-based or functional assay
Assign IC50, inhibition of long chain DNA synthesis to each entry below.
Numbers only here, please. The scale is µM.

Which value of IC50, inhibition of long chain DNA synthesis has been reported for ATAEETRRMLHRAFDALA [peptide E mutant T34A] in the records?
10

Which value of IC50, inhibition of long chain DNA synthesis has been reported for ATAEETRRMLHRAFDTAA [peptide E mutant L35A] in the records?
97
